B1: EHEE_rd2_0196 (parent)
chain: TETRTFDSEEEAKKAQKEAEKQGRTVTITRRDDRWEVRFD

- Variants of: B1
- assay.remarks: folding stability dG (cDNA display proteolysis); higher = more stable
- condition.info: PBS, room temperature
Task for the reader: assign each of the following variants its reported folding stability dG.
State the answer as a number, implicitly in kcal/mol.

folding stability dG reading for TETRTFDSYEEAKKAQKEAEKQGRTVTITRRDDRWEVRFD [E9Y] : 3.58

folding stability dG reading for TETRTFDSEEEAKMAQKEAEKQGRTVTITRRDDRWEVRFD [K14M] : 3.23

folding stability dG reading for TQTRTFDSEEEAKKAQKEAEKQGRTVTITRRDDRWEVRFD [E2Q] : 3.03

folding stability dG reading for TETRTFDSEEEAKKAQKEAEKQGRTVTITRRDDRWFVRFD [E36F] : 2.5

folding stability dG reading for TETRTFDSEEEAKKAQKEAEKQGRTVTITRRDDRWEYRFD [V37Y] : 0.443

folding stability dG reading for TETRTFDSEEEAKKAQKEAEKQGRTVTITRRDDRWEVRTD [F39T] : 2.48

folding stability dG reading for TETRTFDSEEEAKKAQKEAEKQGRTVTITRRDDTWEVRFD [R34T] : 2.7

folding stability dG reading for TETFTFDSEEEAKKAQKEAEKQGRTVTITRRDDRWEVRFD [R4F] : 3.15

folding stability dG reading for TETRTFDSEEEAKKAQKEAEKQGRTVTIIRRDDRWEVRFD [T29I] : 3.19

folding stability dG reading for TETRTFDSEEEAKKAQKEAEKQCRTVTITRRDDRWEVRFD [G23C] : 2.46

folding stability dG reading for TETRTFDSEEEAKYAQKEAEKQGRTVTITRRDDRWEVRFD [K14Y] : 2.95

folding stability dG reading for TETKTFDSEEEAKKAQKEAEKQGRTVTITRRDDRWEVRFD [R4K] : 2.9

folding stability dG reading for TETRTFDSEEEAKKAQKEAEKQGRTVTITRRDDRWEVRFP [D40P] : 2.3

folding stability dG reading for TETQTFDSEEEAKKAQKEAEKQGRTVTITRRDDRWEVRFD [R4Q] : 2.93

folding stability dG reading for TEGRTFDSEEEAKKAQKEAEKQGRTVTITRRDDRWEVRFD [T3G] : 2.17

folding stability dG reading for TETRTFDSEEEAKKAQDEAEKQGRTVTITRRDDRWEVRFD [K17D] : 2.92

folding stability dG reading for TETHTFDSEEEAKKAQKEAEKQGRTVTITRRDDRWEVRFD [R4H] : 2.77

folding stability dG reading for TETRTFDSEEEAKKAQKEAEKQGRTVTITRRIDRWEVRFD [D32I] : 2.11

folding stability dG reading for TETRTFDSKEEAKKAQKEAEKQGRTVTITRRDDRWEVRFD [E9K] : 1.66

folding stability dG reading for TETRTFDSEEEAKKAQKEIEKQGRTVTITRRDDRWEVRFD [A19I] : 2.47

folding stability dG reading for TETRTFDSEEVAKKAQKEAEKQGRTVTITRRDDRWEVRFD [E11V] : 1.43

folding stability dG reading for TETRTFDSEEEAYKAQKEAEKQGRTVTITRRDDRWEVRFD [K13Y] : 3.29

Where these numbers come from: the MegaScale stability set (Tsuboyama et al. 2023)
